# target: KRAS G12C-BRAF complex (Homo sapiens (Human), UniProt P01116+P62937, G12C)
# Sequence (P01116-2 other isoform, or with tags, fused parts or gaps G12C): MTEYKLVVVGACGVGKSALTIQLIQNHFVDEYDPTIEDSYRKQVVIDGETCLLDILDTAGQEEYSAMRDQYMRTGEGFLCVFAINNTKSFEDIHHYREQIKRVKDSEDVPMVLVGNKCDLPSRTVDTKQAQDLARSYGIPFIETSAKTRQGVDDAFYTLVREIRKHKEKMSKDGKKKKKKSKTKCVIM
# Sequence (P62937 whole entry): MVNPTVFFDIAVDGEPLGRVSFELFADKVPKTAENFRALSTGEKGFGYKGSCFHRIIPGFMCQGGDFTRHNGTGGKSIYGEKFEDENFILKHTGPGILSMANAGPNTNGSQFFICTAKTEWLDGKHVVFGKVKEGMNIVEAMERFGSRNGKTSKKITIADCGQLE
# assay-remarks: KRAS-BRAF with CYPA (50 nM) interaction assay (TR-FRET), G12C
# Format: binding
# experimental-context: GMPPNP loaded 6His-KRAS, GST-BRAF RBD
assay-metric: IC50
Just so you know, I need the unit written after the number.

Sample records with IC50:
compound	test-result
CCn1c(-c2cccnc2[C@H](C)OC)c2c3cc(ccc31)-c1cc(O)cc(c1)C[C@H](NC(=O)[C@H](C(C)C)N(C)C(=O)[C@H]1CCN(C(=O)/C=C/n3cncn3)C1)C(=O)N1CCC[C@H](N1)C(=O)OCC(C)(C)C2 (atropisomer, axis not shown; (M))	38 nM
CO[C@@H](C)c1ncc(N2CCOCC2)cc1-c1c2c3cc(ccc3n1CC(F)(F)F)-c1csc(n1)C[C@H](NC(=O)[C@H](C(C)C)N(C)C(=O)[C@H]1CCN(C(=O)[C@H](F)Cl)C1)C(=O)N1CCC[C@H](N1)C(=O)OCC(C)(C)C2 (atropisomer, axis not shown; (M))	32 nM
CCn1c(-c2cc(N3CCN(C)CC3)cnc2[C@H](C)OC)c2c3cc(ccc31)-c1csc(n1)C[C@H](NC(=O)[C@H](C(C)C)N1CCCC3(CCN(C(=O)[C@H](F)Cl)C3)C1=O)C(=O)N1CCC[C@H](N1)C(=O)OCC(C)(C)C2 (some centres unmarked)	68 nM
CO[C@@H](C)c1ncc(N2CCN(C)CC2)cc1-c1c2c3cc(ccc3n1CC(F)(F)F)-c1csc(n1)C[C@H](NC(=O)[C@H](C(C)C)N1CC[C@]3(CCN(C(=O)[C@H](F)Cl)C3)C1=O)C(=O)N1CCC[C@H](N1)C(=O)OCC(C)(C)C2	21 nM
CO[C@@H](C)c1ncc(N2CCN(C)CC2)cc1-c1c2c3cc(ccc3n1CC(F)(F)F)-c1csc(n1)C[C@H](NC(=O)[C@H](C(C)C)N(C)C(=O)C1(F)CCN(C(=O)[C@H](F)Cl)CC1)C(=O)N1CCC[C@H](N1)C(=O)OCC(C)(C)C2 (atropisomer, axis not shown; (M))	11 nM

Which IC50 is listed for CCn1c(-c2cccnc2[C@H](C)OC)c2c3cc(ccc31)-c1cc(O)cc(c1)C[C@H](NC(=O)[C@H](C(C)C)N(C)C(=O)C1CC(C=O)C1)C(=O)N1CCC[C@H](N1)C(=O)OCC(C)(C)C2 (some centres unmarked) ?
1 nM

Which IC50 is listed for CCn1c(-c2cc(N3CCN(C)CC3)cnc2[C@H](C)OC)c2c3cc(ccc31)-c1cc(O)cc(c1)C[C@H](NC(=O)[C@H](C(C)C)N(C)C(=O)[C@H]1CCN(C(=O)[C@H](F)Cl)C1)C(=O)N1CCC[C@H](N1)C(=O)OCC(C)(C)C2 (atropisomer, axis not shown; (M)) ?
2 nM

Which IC50 is listed for CO[C@@H](C)c1ncc(N2CCN(C)CC2)cc1-c1c2c3cc(ccc3n1CC(F)(F)F)-c1csc(n1)C[C@H](NC(=O)[C@H](C(C)C)N(C)C(=O)[C@H]1CCN(C(=O)[C@H](F)Cl)C1)C(=O)N1CCC[C@H](N1)C(=O)OCC(C)(C)C2 (atropisomer, axis not shown; (M)) ?
21 nM
